Below: a set of entries, each annotated with reported total impurities (%).
Assay: Stability test (2): salt crystalline forms at high temperature, high humidity and light, detection by HPLC and XRPD
Type: physicochemical
Conditions: HPLC; 60° C. (open), 10 days

Solved cases below.
O=C(NS(=O)(=O)c1ccc(NC[C@H]2COCCO2)c([N+](=O)[O-])c1)c1ccc(N2CCN(CC3=C(c4ccc(Cl)cc4)CC4(CCC4)CC3)CC2)cc1Oc1cnc2[nH]ccc2c1.O=C(O)CC(O)(CC(=O)O)C(=O)O	0.89%
O=C(NS(=O)(=O)c1ccc(NC[C@H]2COCCO2)c([N+](=O)[O-])c1)c1ccc(N2CCN(CC3=C(c4ccc(Cl)cc4)CC4(CCC4)CC3)CC2)cc1Oc1cnc2[nH]ccc2c1.O=S(=O)(O)O	0.92%

Now consider the entry below.
Would you kindly share the measured total impurities (%) for CS(=O)(=O)O.O=C(NS(=O)(=O)c1ccc(NC[C@H]2COCCO2)c([N+](=O)[O-])c1)c1ccc(N2CCN(CC3=C(c4ccc(Cl)cc4)CC4(CCC4)CC3)CC2)cc1Oc1cnc2[nH]ccc2c1 ? 0.91%
